system_tested: T1, TNFR1 (Homo sapiens, UniProt P19438)
T1 chain: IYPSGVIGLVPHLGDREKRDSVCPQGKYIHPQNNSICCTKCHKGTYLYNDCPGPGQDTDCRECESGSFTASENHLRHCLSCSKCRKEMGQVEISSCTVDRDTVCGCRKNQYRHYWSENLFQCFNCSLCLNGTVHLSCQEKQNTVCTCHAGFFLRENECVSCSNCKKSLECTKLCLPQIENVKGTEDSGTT
method_summary: yeast display SC50
result_type: apparent Kd (screen) (nM)

Below, 2 binders whose answers are already recorded.
E86A (designed binder) MTLQELLREEALRRAEAEAFRYALELLAEKFPEQKEYLLDLAEEIESQIRSLSGVDVEDVRKFLDKEWAWVKELLAEHPAELAEVAAARAARLAELRAEVEAKVAA : 0.956
R8W (designed binder) MTLQELLWEEALRRAEAEAFRYALELLAEKFPEQKEYLLDLAEEIESQIRSLSGVDVEDVRKFLDKEWAWVKELLAEHPAELAEVEAARAARLAELRAEVEAKVAA : 0.539

I. L41E (designed binder) MTLQELLREEALRRAEAEAFRYALELLAEKFPEQKEYLLDEAEEIESQIRSLSGVDVEDVRKFLDKEWAWVKELLAEHPAELAEVEAARAARLAELRAEVEAKVAA
II. K30D (designed binder) MTLQELLREEALRRAEAEAFRYALELLAEDFPEQKEYLLDLAEEIESQIRSLSGVDVEDVRKFLDKEWAWVKELLAEHPAELAEVEAARAARLAELRAEVEAKVAA
III. L6P (designed binder) MTLQEPLREEALRRAEAEAFRYALELLAEKFPEQKEYLLDLAEEIESQIRSLSGVDVEDVRKFLDKEWAWVKELLAEHPAELAEVEAARAARLAELRAEVEAKVAA
IV. I45Q (designed binder) MTLQELLREEALRRAEAEAFRYALELLAEKFPEQKEYLLDLAEEQESQIRSLSGVDVEDVRKFLDKEWAWVKELLAEHPAELAEVEAARAARLAELRAEVEAKVAA
V. A28S (designed binder) MTLQELLREEALRRAEAEAFRYALELLSEKFPEQKEYLLDLAEEIESQIRSLSGVDVEDVRKFLDKEWAWVKELLAEHPAELAEVEAARAARLAELRAEVEAKVAA
-- ask Endpoint returns the given binders ordered by ascending apparent Kd (screen). Field: ranking. Enter the labels in the order requested.
-- reply V, II, I, III, IV
(V: 0.79 nM, II: 1.27 nM, I: 2.25 nM, III: 4.39 nM, IV: 15.2 nM)
